Cited source: patent US6426204B1

Exercise: state measured Relative Reactivity for each of the molecules provided.
- SYSTEM: C. tropicalis D-arabinitol dehydrogenase (Candida tropicalis)
- Construct: endogenous in cells
- Sequence (P50166 whole entry): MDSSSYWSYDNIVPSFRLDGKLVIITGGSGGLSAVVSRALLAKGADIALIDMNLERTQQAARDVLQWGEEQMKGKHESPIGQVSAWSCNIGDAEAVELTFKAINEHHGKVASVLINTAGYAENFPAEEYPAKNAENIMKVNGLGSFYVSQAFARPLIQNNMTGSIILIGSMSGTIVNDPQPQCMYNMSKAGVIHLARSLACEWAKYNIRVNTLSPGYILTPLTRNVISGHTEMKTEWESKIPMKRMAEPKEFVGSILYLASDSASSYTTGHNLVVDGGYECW
- TEST PROTOCOL: Specificity of the fluorogenic D-arabinitol assay (reactivity of sugars and sugar alcohols)
- Assay type: biochemical
- TEST SETTINGS: compound 5 μmol/L in PBS/10 mmol/L citrate pH 4.0; relative to D-arabinitol
I only need the number, in %, no unit after it.

API: value(readout=Relative Reactivity, system=C. tropicalis D-arabinitol dehydrogenase (Candida tropicalis)) for record `OC[C@@H](O)[C@H](O)[C@H](O)[C@@H](O)CO`
0.6

// next record `OC[C@@H](O)[C@@H](O)CO`
0

// next record `OC[C@@H](O)C(O)[C@H](O)CO`
100

// next record `OC[C@H](O)C(O)[C@@H](O)CO`
0

// next record `OC[C@@H](O)[C@H](O)[C@@H](O)CO`
3.3

// next record `OC[C@@H](O)[C@@H](O)[C@H](O)[C@H](O)CO`
0

// next record `OC[C@@H](O)[C@@H](O)[C@H](O)[C@@H](O)CO`
0.1

// next record `OC[C@@H](O)[C@H](O)CO`
0.1

// next record `OC[C@@H](O)[C@@H](O)[C@@H](O)CO`
0
